experiment: yeast display, Sf9 membrane polyspecificity reagent, FACS + sequencing; frameworks hold sequencing errors
metric: polyreactivity (PSR sort gate)

QVQLVESGGGLVQAGGSLRLSCAASGIIFQRNDMGWYRQAPGKERELVANIRDGGITYADSVKGRFTISRDNAKNTVYLQMNSLKPEDTAVYYCARDDTSPGYCDQSSNAAYYYWGQGTQVTVSS    low polyreactivity
QVQLVESGGGLVQAGGSLRLSCAASGLIFIHNTMRWYRQAPGKERELVAAISWSGASTYYADSVKGRFTISRDNAKNTVYLQMNSLKPEDTAVYYCNAGYRYSIYDYWGQGTQVTVSS    low polyreactivity
QVQLVESGGGLVQAGGSLRLSCAASGIIFRVYAMGWYRQAPGKERELVATITWSGGSTFYADSVKGRFTISRDNAKNPVDLQRNSLTPEDTAVYYCAARGYLRREQLYVLIRYDYWGQGTQVTVSS    low polyreactivity

###

assay: yeast display, Sf9 membrane polyspecificity reagent, FACS + sequencing; frameworks hold sequencing errors
metric: polyreactivity (PSR sort gate)

The following sequences have reported results that may help.
QVQLVESGGGLVQAGGSLRLSCAASGSIFKRNAKGWYRQAPGKERGLVAGNSQSGSSTRYADSVKGRFTISRDNAKNTVYLQMNSLKPEDTAVYYCAAELSLAYTYDYWGQGTQVTVSS    high polyreactivity
QVQLVESGGGLVQAGGSLRLSCAASGSTFAKNAMGWYRQAPGKERELVAAITASGGSTYYADSVKGRFTISRDNAKNTVSLQMNSLKPEDTAVYYCAKSSYLTRGSRYDYWGQGTQVTVSS    low polyreactivity
QVQLVESGGGLVQAGGSLRLSCAASGRIFDSNAMGWYRQAPGKERELVAAITYSGGGTFYADSVKGRFTISRDNAKNTVYLQMNRLKPEDTAVYYCNAGYFTEYNSWGQGTQVTVSS    high polyreactivity
QVQLVESGGGLVQAGGSLRLSCAASGRIFDYYAMGWYRQAPGKERELVATITSGSRTYYADSVKGRFTISRDNAKNTVYLQMNSLKPEDTAVYYCNTVSFKRLGWRYDYWGQGTQVTVSS    high polyreactivity

Please find the next sequence below.
Determine from records and report polyreactivity (PSR sort gate) for QVQLVESRGRLVQAGGSLRLSCAASGITFYVYTMGWYRQAPGKERELVAAINGSGGSTNYADSVKGRFTISRDNAKNSVYLHMNSLKTEDTAVYYCAADWSLRLYDYWGQGTQVTVSS
low polyreactivity

###

assay: yeast display, Sf9 membrane polyspecificity reagent, FACS + sequencing; frameworks hold sequencing errors
metric: polyreactivity (PSR sort gate)

QVQIVESGGGLVQAGGSLRLSCAASGFTFRAYAMGWYRQAPGKERELDAAISKSGGRTYYADSVKGRFTISRDNAKNTVYLQMNSLKPEDTAVYYCAKAYRRAFINNPDVYYYPDDYWGQGTQVTVSS    high polyreactivity
QVQLVESGGGLVQAGGSLSLSCAASGFTVYGYAMGWYRQAPGKERELVAAISRRSSSTYYADSVKGRFTISRDNAKNTVYLQMNSLKPEDTAVYYCNTVFQRTGYAAGVDYWGQGTQVTVSS    high polyreactivity
QVQLVESGGGLVQAGGSLRLSCAASGRIFITYAMGWYRPAPGTERELVAAIDSRGGSTYYADSVKGRFTISRDNAKNTDYLQMNSLKPEDTSVNYCAAEFYYIWLYEYWGQGTQVTVSS    high polyreactivity
QVQLVESGGGIVQAGGSLRLSCAASGSTFILNAMGWYRQAPGKERALVATISSSDTSTYYADSVKGRFTISRDNAKNTVYLQMNSLKPEDTAVYYCNADDYTTSYLQRVYHYGVEYYYWGQGTQVTVSS    low polyreactivity
QVQLVESGGGLVQAGGSLRLSCAASGRTFPSYAKGLYRQAPGKERELVASISRGASTNYADSVMGRFTISRDNAKNCVFLQMNSLKPEDTAVYFWAANDSWVYTYYYWGQGTQVTVSS    high polyreactivity
QVQLESGGGLVQAGGSLRLSCAASGITFQLYDMGWYRQAPGKERELVAAINSSGGSTYYADSVKGRFTISRDNAKNTVYLQMNSLKPEDTAVYYCNVGFAPVTNDQPVSTEYDYWGQGTQVTVSS    low polyreactivity
QVQLVESGGGLVQAGGSLRLSCAASGSIFEIYAMGWYRQAPGKERELVAAISWSGGRTYYADSVKGRFTISRDNAKNTVYLQMNSLKPEDTAVYYCNAGQWRYPGLYYYWGQVTQVTVSS    high polyreactivity
QVQLVESGGGLVQAGGSLRLSCAASGRIYGDYAMGWYRQAPGKERELVARITWSGTGTYYADSVKGRFTISRDNAKNTVYLQMNSLKPEDTAVYYCNADWQVKWYYYWGQVTQVTVSS    low polyreactivity
QVQLVESGGGLVQAGGSLRLSCAASGSTFRGYAMGWYRQVPGKERELVADISWSGTSTYYADSVKGRFTISRDNAKNTFYLQLNSVIPEDTAVYYCAKGGRDRSRKYYYWGQGTQVTVSS    high polyreactivity
QDQLVESGGGLVQAGGSLRLSCAASGSTFVVNAMGWYRQAPGKERELVAAISSSGSSTYADSVKGRFTISRDNEKNTVYLQMNCLKPEDTAVYYCHKTTLLTVEYDYWGQGTQVSVSS    low polyreactivity

Determine from records and report polyreactivity (PSR sort gate) for QVQLVESGGGLVQAGGSLRLSCAASGRTFYDNAMGWYRQAPGKERELVAVISTSGARTYYADSVKGRFTISRDNAKNTVYLQMNSLKPEDTAVYYCAARRYKYSWDSGYDLYYWGQGTQVTVSS
high polyreactivity

Determine from records and report polyreactivity (PSR sort gate) for QVQLVESGGGLVQAGGSLRLSCAASGSIFGPNAMGWYRQAPGKERELGAAISWRGGSTYYADSVKGRFTISRDTAKNTVYLQMNSLKPEDTAVYYCNKYLTWAEGLPGYDYWGQGTQVTVSS
high polyreactivity

Determine from records and report polyreactivity (PSR sort gate) for QVQLVESGGGLVQAGGSLRLSCAASGFTFPYYAMGWYRQAPGKERELVAAISRNGGSTYYADSVKGRFTISRDNAKNTVYLQMNSLKPEDTAVYYCAARYRYWGGSGFKGFDYWGQGTQVTVSS
high polyreactivity

Determine from records and report polyreactivity (PSR sort gate) for QVQLVESGGGLVQAGGSLRLSCAASGLTFRRYGMGWYRQAPGKERELVASISSRGGNTYYADSVKGRFTISRDNAKNTVYLQMNSLKPEDTAVYYCATGVSTRYEYWGQGTQVTVSS
high polyreactivity

Determine from records and report polyreactivity (PSR sort gate) for QVQLVESGGGLVQAGGSLRLICAASGSTFYHNVMGWYRQAPGKERELLASIYRGGSTYYADSVKGRFTISRDNAKNTVYVQMNSLKPEDTAVYYCAADLSSDSSYSGYDYSGQGTQVTVSS
low polyreactivity

Determine from records and report polyreactivity (PSR sort gate) for QVQLVESGGGLVQAGGSLRLSCAASGSTFDSNAMGWYRQAPGKERELVAAIRFSGGSTNYADSVKGRFTISRDNAKNTVYLQMNSLKPEDTAVYYCAARYPNLRRRWYYYWGQGTQVTVSS
high polyreactivity

Determine from records and report polyreactivity (PSR sort gate) for QVQLVESGGGLVQAGGSLRLSCAASGLIFWGYTMGWYRQAPGKERELVAAISRRGGRTYYADSVKGRFTISRDNAKNTVYLQMNSLKPEDTAVYYCNADITSSGPKSDYWGQGTQVTVSS
high polyreactivity

Determine from records and report polyreactivity (PSR sort gate) for QVQLVESGGGLVQAGGSLRLSCAASGSIFEYYTMGWYIPAPGKERECVAAITFTGDSTYYADSVKGRFTISRDNAKNTVFLQMNSLKPEDTAVYYCNADSVTYDGEYDYWGQGTQVTVSS
low polyreactivity

Determine from records and report polyreactivity (PSR sort gate) for QVQLVESGGGLVQAGGSLRLSCAASGRTFFRNAMGWYRQAPGKERELVAGMSSSGGRTYADSVKGRYTISRDNAKNTVYLQMNSLKPEDTAVYYCAVQSGWVSGLRYYYWGQGTQVTVSS
high polyreactivity

Determine from records and report polyreactivity (PSR sort gate) for QVQLVESGGGLVQAGGSLRLTCAASGRTFRIYAMGWYRQAPGKERELVAAITRRGGSTYYADSVKGRFTISLDNAKNTVNLQMNSLKPEDTAVYYCAAELRYGYLYPYDSWGQGTQVTVSS
high polyreactivity

Determine from records and report polyreactivity (PSR sort gate) for QVQLVESGGGLVQAGGSLRLSCAASGRIFGRYAMGWYRQAPGKERELVASITYRGGGTYYADSVKGRFTISRDNAKNTVYLQMNSLKAEDTAVYYCAAALSNVRNVRSPYDYWGQGTQVTVSS
high polyreactivity
